assay: Caco-2 permeability; type: in vitro ADME; settings: human, Caco-2, pH 7.4

molecule	Papp A→B at 2 h, 2 µM
CC(C(=O)NC1CCC(F)(F)CC1)(c1cncnc1)N(C(=O)CCl)c1ccc(-c2ccno2)cc1 (single isomer, unassigned) [INSCoV-601P(1A)]	< 0.48 ×10⁻⁶ cm/s

###

half-life at 2 µM listing for selected compounds.
assay: Plasma stability, mice; assay type: in vitro ADME; conditions: mouse, pH 7.4
metricName: half-life at 2 µM

compound	valueReported
CC(C(=O)NC1CCC(F)(F)CC1)(c1cnccn1)N(C(=O)CCl)c1ccc(-c2ccns2)cc1 (stereo not drawn) [INSCoV-601N]	21.1 min
O=C(NC1CCC(F)(F)CC1)[C@@H](c1cncnc1)N(C(=O)[C@@H](F)Cl)c1ccc(-c2cncs2)cc1 (single isomer, unassigned)	> 289 min
CC(C(=O)NC1CCC(F)(F)CC1)(c1cncnc1)N(C(=O)CCl)c1ccc(-c2ccno2)cc1 (single isomer, unassigned) [INSCoV-601P(1A)]	13.1 min

Just for reference, patent US20230174488A1 is where these values come from.
